All figures here come from PubChem BioAssay (NCI).

- System: SN12C renal
- Test Summary: NCI-60 one-dose screen, 48 h (100 = growth as untreated, 0 = no growth, -100 = all killed)
- Test Settings: 10 µM unless noted
About 83,000 compounds went through this panel and 20% of them were active in at least one assay; those are over-represented in the sample as a whole.
Measured Property: growth (%)
The reply should be a number in %, with the unit left off.

Compound | Quantity Unit | growth
C=CCn1c(SCC(=O)Nc2cccc(C(=O)/C=C/c3ccc(Cl)cc3)c2)nc2ccccc2c1=O | % | 86.2
COc1cc2oc(-c3cccc(NC(=O)c4cc(NC(=O)[C@H](C)N)ccc4Cl)c3)cc(=O)c2c(OC)c1OC | % | 90.9
C=CCn1c(SCC(=O)Nc2cccc(C(=O)/C=C/c3ccc(OC)c(OC)c3)c2)nc2ccccc2c1=O | % | 96.8
COc1cc(/C=C/C(=O)c2ccc(NC(=O)CSc3nnc(-c4ccc5nc(-c6ccccc6)[nH]c5c4)o3)cc2)cc(OC)c1OC | % | 90.8
CCC(C)[C@H]1OC(=O)[C@H](C(C)C)N(C)C(=O)[C@@H](C(C)C)OC(=O)[C@H](C(C)C)N(C)C(=O)[C@@H](C(C)CC)OC(=O)[C@H](C(C)C)N(C)C1=O (some centres not stated) | % | 4.12
COc1c([C@@H](CC(C)C)OC(C)=O)ccc2c1C(=O)OCc1cc(C)cc(O)c1O2 | % | 27.8
O=[N+]([O-])c1ccc(-c2nnc(SCc3ccc(O)c4ncccc34)o2)cc1 | % | 17.1
CCNC(=O)Oc1ccc(/C(=C(/C)c2ccccc2)c2ccc(OCCN3CCCC3)cc2)cc1 | % | 78.2
Oc1ccc(CSc2nnc(-c3ccccc3)o2)c2cccnc12 | % | 32.1
O=C(N/N=C\c1ccc(Cl)cc1)c1ccc2nc(-c3ccc(Br)cc3)[nH]c2c1 | % | -14.6

Request: Check the records and state growth for O=C1Nc2cc(OC(F)(F)F)ccc2Oc2ccc(-c3ccnc(N4CCNCC4)c3)cc21
Result: -26.9

Request: Query growth for COc1ccc(N2CCN(C(=O)CSc3ccc(-c4nc5cc(C)c(C)cc5[nH]4)cn3)CC2)cc1
Result: 83.2

* * *

- Tested on: SN12C renal
- Test Summary: NCI-60 one-dose screen, 48 h
- Test Settings: 10 µM unless noted
About 83,000 compounds went through this panel and 20% of them were active in at least one assay; those are over-represented in the sample as a whole. Active and inactive are the calls of the source. The calls were made as follows: active = growth percent below 10; inactive = the rest.
The reply should be one of these categories: active, inactive

Solved cases (3 shown):
Molecule | Label Class
CCOC(=O)c1nn(-c2ccccc2)c(=O)c2c(N)c(C#N)c(-c3cccs3)cc12 | inactive
O=C(CCCCCCN1CC(=O)N2[C@@H](c3ccccc3)c3[nH]c4ccccc4c3C[C@H]2C1=O)NO | inactive
N#Cc1c(-c2cccs2)cc(-c2cnccn2)nc1SCC(=O)NNC(=S)Nc1ccc(F)cc1 | inactive

Request: # lookup: test call for Nc1nc(-c2cccc([N+](=O)[O-])c2)c(N=Nc2cccc(Cl)c2)s1
Result: inactive

Request: Answer briefly: the call reported for CCCC(=O)NC(c1cccnc1)c1cc(C(C)=O)c2cccnc2c1O (stereo not given) in this assay.
Result: inactive

Request: Please state the recorded outcome for this molecule: COc1cc(O)c2c(c1)/C=C/C[C@H](O)[C@H](O)C(=O)/C=C\C[C@H](C)OC2=O
Result: active

Request: Can you look up the reported call for COc1ccc(CCN2C(=O)/C(=C/c3nc(CO)cs3)SC2=S)cc1 for me?
Result: inactive

Request: What was the test verdict on COc1ccc2c(c1)c(-c1nnc(N)nc1-c1cn(C)c3ccccc13)cn2C ?
Result: inactive
